# runDescription: Oral bioavailability in Beagle dog at 10 mg/kg administered as bolus dose
# Assay type: ADME, organism-based, Canis lupus familiaris
# particulars: in vivo
recordedMetric: bioavailability (%)
Kindly provide the numeric value in % only, without the unit symbol.

The measured bioavailability associated with CCc1cc(F)cc(C)c1C(=O)N[C@@H](Cc1ccc(N2CCC(CNc3ccccn3)CC2)cc1)C(=O)O reads 11

---

# runDescription: Oral bioavailability in rat at 10 mg/kg, po
# Assay type: ADME, organism-based
# particulars: in vivo
recordedMetric: bioavailability (%)
The reply should be a number in %, with the unit left off.

Value of measured bioavailability for the entry COc1ccnc(NCC2CCN(c3ccc(CC(NC(=O)c4c(C)cc(C)cc4C)C(=O)O)cc3)CC2)c1 (configuration not stated) : 6

Data point: Cc1cc(C)c(C(=O)NC(Cc2ccc(N3CCC(CNc4ccccn4)CC3)cc2)C(=O)O)c(C)c1 (configuration not stated) ; bioavailability = 24

---

Field: IC50. Provide a value for each of the compounds that follow.
# systemUnderTest: Integrin alpha-V/beta-5 (Homo sapiens, UniProt P06756+P18084)
# Sequence (P06756 31-889 limits assumed): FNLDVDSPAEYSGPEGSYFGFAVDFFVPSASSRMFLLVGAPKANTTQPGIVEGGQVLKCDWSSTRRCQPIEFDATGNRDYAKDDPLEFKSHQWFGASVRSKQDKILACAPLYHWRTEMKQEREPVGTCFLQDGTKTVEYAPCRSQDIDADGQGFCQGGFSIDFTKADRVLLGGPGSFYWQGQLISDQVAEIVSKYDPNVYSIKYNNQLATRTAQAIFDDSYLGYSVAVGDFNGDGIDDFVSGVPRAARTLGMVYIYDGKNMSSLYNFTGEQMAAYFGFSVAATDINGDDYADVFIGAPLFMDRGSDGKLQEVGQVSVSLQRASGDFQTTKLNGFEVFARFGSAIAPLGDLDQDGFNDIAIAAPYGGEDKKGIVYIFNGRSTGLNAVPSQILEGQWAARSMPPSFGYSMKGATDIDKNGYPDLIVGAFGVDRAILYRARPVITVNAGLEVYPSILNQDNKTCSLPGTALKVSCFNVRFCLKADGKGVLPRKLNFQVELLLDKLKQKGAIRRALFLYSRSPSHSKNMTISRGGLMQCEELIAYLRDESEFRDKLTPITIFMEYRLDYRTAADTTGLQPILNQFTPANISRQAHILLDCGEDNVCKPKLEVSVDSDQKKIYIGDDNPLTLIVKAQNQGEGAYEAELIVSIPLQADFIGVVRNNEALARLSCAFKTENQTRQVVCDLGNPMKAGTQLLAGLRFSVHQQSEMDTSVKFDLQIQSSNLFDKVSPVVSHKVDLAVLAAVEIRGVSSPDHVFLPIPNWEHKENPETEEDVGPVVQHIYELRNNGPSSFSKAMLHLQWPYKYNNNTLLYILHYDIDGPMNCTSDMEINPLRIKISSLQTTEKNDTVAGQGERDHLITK
# Sequence (P06756 891-1048 limits assumed): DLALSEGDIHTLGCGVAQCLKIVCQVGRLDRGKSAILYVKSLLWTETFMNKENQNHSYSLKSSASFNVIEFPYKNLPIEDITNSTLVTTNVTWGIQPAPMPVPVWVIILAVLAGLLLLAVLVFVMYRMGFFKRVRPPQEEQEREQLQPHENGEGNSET
# Sequence (P18084 24-799 limits assumed): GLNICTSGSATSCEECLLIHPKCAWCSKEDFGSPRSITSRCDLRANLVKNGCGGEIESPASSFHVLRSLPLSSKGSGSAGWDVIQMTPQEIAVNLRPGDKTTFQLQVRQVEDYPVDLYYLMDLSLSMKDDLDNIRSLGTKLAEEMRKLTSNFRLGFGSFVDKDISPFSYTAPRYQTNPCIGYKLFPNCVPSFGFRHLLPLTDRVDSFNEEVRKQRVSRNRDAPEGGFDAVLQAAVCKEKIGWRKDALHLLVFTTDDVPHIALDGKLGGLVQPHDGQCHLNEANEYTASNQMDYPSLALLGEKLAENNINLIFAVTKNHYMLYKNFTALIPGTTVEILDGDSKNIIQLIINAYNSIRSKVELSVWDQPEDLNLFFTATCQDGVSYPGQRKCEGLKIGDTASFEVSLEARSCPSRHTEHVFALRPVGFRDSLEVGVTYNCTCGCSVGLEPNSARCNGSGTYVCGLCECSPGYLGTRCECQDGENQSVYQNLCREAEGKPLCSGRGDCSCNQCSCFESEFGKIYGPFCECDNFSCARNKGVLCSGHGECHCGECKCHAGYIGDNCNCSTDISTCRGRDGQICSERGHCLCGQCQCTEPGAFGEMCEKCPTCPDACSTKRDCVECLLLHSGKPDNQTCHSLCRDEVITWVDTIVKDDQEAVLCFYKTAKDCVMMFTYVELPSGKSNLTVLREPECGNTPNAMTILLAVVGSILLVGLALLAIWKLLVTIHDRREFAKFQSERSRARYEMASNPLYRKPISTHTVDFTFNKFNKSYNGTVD
# runDescription: Inhibition of integrin […] receptor by ELISA
Use µM as the unit, but write only the number.

The measured IC50 associated with COc1ccnc(NCC2CCN(c3ccc(CC(NC(=O)c4c(C)cc(C)cc4C)C(=O)O)cc3)CC2)c1 (centres undefined) reads 3.54

Note to self: IC50 recorded for Cc1ccnc(NCC2CCN(c3ccc(CC(NC(=O)c4c(C)cc(C)cc4C)C(=O)O)cc3)CC2)c1 (centres undefined) was 10.7

Documented IC50 of CCc1cc(F)cc(C)c1C(=O)NC(Cc1ccc(N2CCC(CNc3ccccn3)CC2)cc1)C(=O)O (centres undefined) : 11.7

Summary for this compound, Cc1cc(C)c(C(=O)NC(Cc2ccc(N3CCC(CNc4ccccn4)CC3)cc2)C(=O)O)c(C)c1 (centres undefined) : IC50 is 15

---

Record form. Attribute: remaining at 1 h, 1 µM. Fill in for each entry.
# runDescription: Metabolic stability in human microsomes assessed as compound remaining at 1 uM after 1 hr
# Format: ADME, Microsome
# particulars: read-out: Stability
Your answer should be a plain number; it is taken to be in %.

Record summary for CCc1cc(F)cc(C)c1C(=O)NC(Cc1ccc(N2CCC(CNc3ccccn3)CC2)cc1)C(=O)O (centres undefined) : reported remaining at 1 h, 1 µM = 105

Value of remaining at 1 h, 1 µM reported for the compound CCc1cccc(C)c1C(=O)NC(Cc1ccc(N2CCC(CNc3ccccn3)CC2)cc1)C(=O)O (centres undefined) is 52

Input Cc1cccc(C)c1C(=O)NC(Cc1ccc(N2CCC(CNc3ccccn3)CC2)cc1)C(=O)O (centres undefined) . Output remaining at 1 h, 1 µM: 59

remaining at 1 h, 1 µM in this record for Cc1cc(F)cc(C)c1C(=O)NC(Cc1ccc(N2CCC(CNc3ccccn3)CC2)cc1)C(=O)O (centres undefined) : 69

---

# runDescription: Systemic clearance in Beagle dog at 10 mg/kg, iv administered as bolus dose
# Format: ADME, organism-based, Canis lupus familiaris
# Design: dose 10 mg/kg, route intravenous
# particulars: in vivo
recordedMetric: clearance (mL/min/kg)
# output: bare number, implied unit mL/min/kg

GET /value?item= CCc1cc(F)cc(C)c1C(=O)N[C@@H](Cc1ccc(N2CCC(CNc3ccccn3)CC2)cc1)C(=O)O &field=clearance returns 11

---

# systemUnderTest: Integrin alpha-V/beta-5 (Homo sapiens, UniProt P06756+P18084)
# runDescription: Inhibition of integrin […] receptor by ELISA
Sorting guide: entries reporting IC50 beneath 3 µM go in the 1 pile, the rest go in the 0 pile.

Field: below-cutoff. Rule: recorded IC50 strictly less than 3 µM. Subject: CCc1cc(F)cc(C)c1C(=O)N[C@@H](Cc1ccc(N2CCC(CNc3ccccn3)CC2)cc1)C(=O)O
0

# TODO verify IC50 < 3 µM strictly for this compound: Cc1cccc(C)c1C(=O)NC(Cc1ccc(N2CCC(CNc3ccccn3)CC2)cc1)C(=O)O (configuration not stated)
1

Please state whether IC50 is below 3 µM for CCc1cccc(C)c1C(=O)NC(Cc1ccc(N2CCC(CNc3ccccn3)CC2)cc1)C(=O)O (configuration not stated)
0

Answer whether the compound O=C(O)[C@H](Cc1ccc(N2CCC(CNc3ccccn3)CC2)cc1)N1Cc2ccccc2C1=O has IC50 strictly less than 3 µM
0

Say whether its IC50 is strictly beneath 3 µM. Entry: CCc1cc(F)cc(C)c1C(=O)N[C@H](Cc1ccc(N2CCC(CNc3ccccn3)CC2)cc1)C(=O)O
0

# TODO verify IC50 < 3 µM strictly for this compound: O=C(N[C@@H](Cc1ccc(N2CCC(CNc3ccccn3)CC2)cc1)C(=O)O)c1ccccc1
1

Is the reported IC50 for Cc1cc(F)cc(C)c1C(=O)NC(Cc1ccc(N2CCC(CNc3ccccn3)CC2)cc1)C(=O)O (configuration not stated) strictly below 3 µM?
0

---

Provide the reported pIC50 of each item.
# systemUnderTest: Integrin alpha-5/beta-1 (Homo sapiens, UniProt P05556+P08648)
# Sequence (P05556 21-798 limits assumed): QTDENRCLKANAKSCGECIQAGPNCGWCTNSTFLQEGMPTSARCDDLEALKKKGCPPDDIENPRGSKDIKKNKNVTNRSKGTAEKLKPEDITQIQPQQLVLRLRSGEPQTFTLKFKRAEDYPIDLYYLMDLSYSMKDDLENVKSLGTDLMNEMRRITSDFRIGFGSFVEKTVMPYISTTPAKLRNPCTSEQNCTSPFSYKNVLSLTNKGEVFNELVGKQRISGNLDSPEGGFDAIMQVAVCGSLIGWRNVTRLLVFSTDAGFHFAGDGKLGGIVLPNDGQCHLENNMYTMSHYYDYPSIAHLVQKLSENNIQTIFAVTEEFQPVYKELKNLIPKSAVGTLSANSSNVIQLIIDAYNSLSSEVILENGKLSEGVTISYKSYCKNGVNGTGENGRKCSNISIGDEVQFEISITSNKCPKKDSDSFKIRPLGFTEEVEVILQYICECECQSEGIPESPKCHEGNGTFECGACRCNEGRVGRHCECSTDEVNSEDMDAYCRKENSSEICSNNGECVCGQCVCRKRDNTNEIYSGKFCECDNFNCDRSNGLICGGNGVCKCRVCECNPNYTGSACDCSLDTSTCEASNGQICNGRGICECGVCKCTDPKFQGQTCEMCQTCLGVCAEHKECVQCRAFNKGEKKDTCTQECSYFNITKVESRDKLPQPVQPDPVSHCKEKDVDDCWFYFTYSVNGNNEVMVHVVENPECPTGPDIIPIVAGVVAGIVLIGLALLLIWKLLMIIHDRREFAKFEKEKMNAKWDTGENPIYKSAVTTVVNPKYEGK
# Sequence (P08648 42-894 limits assumed): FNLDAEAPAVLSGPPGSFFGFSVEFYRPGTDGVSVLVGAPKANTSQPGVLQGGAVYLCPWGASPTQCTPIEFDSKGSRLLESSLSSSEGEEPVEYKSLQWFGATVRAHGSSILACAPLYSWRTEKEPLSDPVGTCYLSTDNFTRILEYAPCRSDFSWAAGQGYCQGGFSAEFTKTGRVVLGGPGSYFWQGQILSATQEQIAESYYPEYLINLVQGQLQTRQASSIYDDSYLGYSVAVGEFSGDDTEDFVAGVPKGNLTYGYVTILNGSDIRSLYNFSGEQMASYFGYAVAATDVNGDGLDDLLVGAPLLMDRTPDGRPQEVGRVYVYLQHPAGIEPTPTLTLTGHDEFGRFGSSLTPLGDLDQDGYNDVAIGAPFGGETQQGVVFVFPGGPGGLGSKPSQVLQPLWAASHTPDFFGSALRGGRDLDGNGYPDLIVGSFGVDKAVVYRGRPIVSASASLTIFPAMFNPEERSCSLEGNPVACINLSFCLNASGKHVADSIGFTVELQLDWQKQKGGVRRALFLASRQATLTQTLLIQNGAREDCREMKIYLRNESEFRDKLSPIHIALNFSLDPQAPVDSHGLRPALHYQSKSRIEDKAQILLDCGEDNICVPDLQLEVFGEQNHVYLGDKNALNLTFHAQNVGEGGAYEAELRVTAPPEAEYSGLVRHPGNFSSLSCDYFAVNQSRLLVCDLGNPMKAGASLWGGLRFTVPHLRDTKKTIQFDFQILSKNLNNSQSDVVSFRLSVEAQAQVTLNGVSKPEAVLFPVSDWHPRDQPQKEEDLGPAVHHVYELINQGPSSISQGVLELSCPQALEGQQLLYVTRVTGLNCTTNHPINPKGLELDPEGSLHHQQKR
# Sequence (P08648 895-1049 limits assumed): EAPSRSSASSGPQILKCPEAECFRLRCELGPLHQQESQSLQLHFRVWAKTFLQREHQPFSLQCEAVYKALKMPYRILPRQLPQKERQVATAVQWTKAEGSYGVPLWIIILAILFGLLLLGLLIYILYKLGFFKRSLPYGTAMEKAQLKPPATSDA
# runDescription: Inhibition of integrin alpha5beta1 receptor by ELISA
# Format: protein-complex assay
pIC50 field: float, defined as -log10 of concentration (mol/L).

Record summary for COc1ccnc(NCC2CCN(c3ccc(CC(NC(=O)c4c(C)cc(C)cc4C)C(=O)O)cc3)CC2)c1 (stereo not given) : reported pIC50 = 9.04

pIC50 reading for CCc1cccc(C)c1C(=O)NC(Cc1ccc(N2CCC(CNc3ccccn3)CC2)cc1)C(=O)O (stereo not given) : 8.66

The compound CCc1cc(F)cc(C)c1C(=O)N[C@@H](Cc1ccc(N2CCC(CNc3ccccn3)CC2)cc1)C(=O)O showed pIC50 equal to 9.05

// recorded pIC50 for Cc1cccc(C)c1C(=O)NC(Cc1ccc(N2CCC(CNc3ccccn3)CC2)cc1)C(=O)O (stereo not given) : 8.80

GET /value?item= O=C(O)[C@H](Cc1ccc(N2CCC(CNc3ccccn3)CC2)cc1)N1Cc2ccccc2C1=O &field=pIC50 returns 6.63

Per the records, this compound ( CCc1cc(F)cc(C)c1C(=O)N[C@H](Cc1ccc(N2CCC(CNc3ccccn3)CC2)cc1)C(=O)O ) has pIC50 equal to 6.45

Form field pIC50, entry O=C(N[C@@H](Cc1ccc(N2CCC(CNc3ccccn3)CC2)cc1)C(=O)O)c1ccccc1 : 7.15

Given item CCc1cc(F)cc(C)c1C(=O)NC(Cc1ccc(N2CCC(CNc3ccccn3)CC2)cc1)C(=O)O (stereo not given) , the value recorded as its pIC50 is 8.70

pIC50 reported for this compound Cc1cc(C)c(C(=O)NC(Cc2ccc(N3CCC(CNc4ccccn4)CC3)cc2)C(=O)O)c(C)c1 (stereo not given) : 8.68

Input Cc1cc(F)cc(C)c1C(=O)NC(Cc1ccc(N2CCC(CNc3ccccn3)CC2)cc1)C(=O)O (stereo not given) . Output pIC50: 8.57

---

Could you please report measured remaining at 1 h, 1 µM for the items listed next?
# runDescription: Metabolic stability in rat microsomes assessed as compound remaining at 1 uM after 1 hr
# Format: ADME, Microsome
# particulars: read-out: Stability
// return numeric value only (unit: %, not printed)

Measured remaining at 1 h, 1 µM of COc1ccnc(NCC2CCN(c3ccc(CC(NC(=O)c4c(C)cc(C)cc4C)C(=O)O)cc3)CC2)c1 (stereo not drawn) : 62

response.value for Cc1ccnc(NCC2CCN(c3ccc(CC(NC(=O)c4c(C)cc(C)cc4C)C(=O)O)cc3)CC2)c1 (stereo not drawn) (field: remaining at 1 h, 1 µM) = 77

Documented remaining at 1 h, 1 µM of Cc1cc(C)c(C(=O)NC(Cc2ccc(N3CCC(CNc4ccccn4)CC3)cc2)C(=O)O)c(C)c1 (stereo not drawn) : 85

---

# runDescription: Elimination half life in Beagle dog at 10 mg/kg, iv administered as bolus dose
# Format: ADME, organism-based, Canis lupus familiaris
# Parameters: dose 10 mg/kg, route intravenous
# particulars: in vivo, read-out: beta t1/2
recordedMetric: half-life

Documented half-life of CCc1cc(F)cc(C)c1C(=O)N[C@@H](Cc1ccc(N2CCC(CNc3ccccn3)CC2)cc1)C(=O)O : 3.58 h

---

# systemUnderTest: Integrin alpha-5/beta-1 (Homo sapiens, UniProt P05556+P08648)
# runDescription: Inhibition of integrin alpha5beta1 receptor-mediated HEK293 cell adhesion
# Assay type: cell-based
Checkbox rule: IC50 lower than 80 nM = Yes; IC50 not lower than 80 nM = No.

Confirm or reject: IC50 of COc1ccnc(NCC2CCN(c3ccc(CC(NC(=O)c4c(C)cc(C)cc4C)C(=O)O)cc3)CC2)c1 (stereo unspecified) lies strictly below 80 nM
Yes

Please state whether IC50 is below 80 nM for CCc1cc(F)cc(C)c1C(=O)N[C@H](Cc1ccc(N2CCC(CNc3ccccn3)CC2)cc1)C(=O)O
No

Item Cc1cc(C)c(C(=O)NC(Cc2ccc(N3CCC(CNc4ccccn4)CC3)cc2)C(=O)O)c(C)c1 (stereo unspecified) : IC50 beneath 80 nM, strictly?
No

Given CCc1cc(F)cc(C)c1C(=O)NC(Cc1ccc(N2CCC(CNc3ccccn3)CC2)cc1)C(=O)O (stereo unspecified) , is recorded IC50 strictly lower than 80 nM?
Yes

Bench note: check whether CCc1cc(F)cc(C)c1C(=O)N[C@@H](Cc1ccc(N2CCC(CNc3ccccn3)CC2)cc1)C(=O)O shows IC50 below 80 nM
Yes

Identify whether the molecule Cc1ccnc(NCC2CCN(c3ccc(CC(NC(=O)c4c(C)cc(C)cc4C)C(=O)O)cc3)CC2)c1 (stereo unspecified) records IC50 below 80 nM.
Yes
